In this section, each of the compounds is paired with its reported pIC50.
System: pERK in PSN1 cells
Experiment: Inhibition of KRas phosphorylation of ERK (Cisbio HTRF pERK assay)
Details: Homo sapiens, PSN1, 3 h, read-out: Inhibition (HTRF IC50) of KRas-mediated Phosphorylation of ERK, PSN1
pIC50: −log10 of the molar value.
MEASUREMENT_KIND: pIC50

| COMPOUND | ASSAY_VALUE |
| --- | --- |
| C#Cc1c(F)ccc2cc(O)cc(-c3ncc4c(N5CCCn6nc(N)cc6C5)nc(OC[C@@]56CCCN5C[C@H](F)C6)nc4c3F)c12 | ≤ 5.00 |
| CCc1c(F)ccc2cc(O)cc(-c3ncc4c(N5CCOCC(OC)C5)nc(OC[C@@]56CCCN5C[C@H](F)C6)nc4c3F)c12 (stereo partly drawn) | ≤ 5.00 |
| CCc1c(F)ccc2cc(O)cc(-c3ncc4c(N5CCCn6nc(NC)cc6C5)nc(OC[C@@]56CCCN5C[C@H](F)C6)nc4c3F)c12 | ≤ 5.00 |
